- Test system: ASPC1
- protocol details: Antiproliferative activity against human AsPC1 cells assessed as inhibition of cell proliferation incubated for 6 days by CCK8 assay
- Assay type: functional, cell-based
- protocol conditions: ASPC1, 144 h
endpoint: GI50

>  <molecule>
Cc1ccccc1S(=O)(=O)N1[C@@H](c2ccc(Cl)cc2)C(C(=O)N[C@@H](Cc2ccccc2)C(N)=O)=C[C@H]1C(C)CC(C)(C)C (some centres undefined)

>  <study system>
ASPC1

>  <endpoint>
GI50

>  <value>
8.61 to 11.4 µM

$$$$
>  <molecule>
Cc1ccccc1S(=O)(=O)N1[C@@H](c2ccc(Cl)c(Cl)c2)C(C(=O)N[C@@H](Cc2ccccc2)C(N)=O)=C[C@H]1C(C)(C)C

>  <study system>
ASPC1

>  <endpoint>
GI50

>  <value>
11.5 to 12.9 µM

$$$$
>  <molecule>
CC(C)(C)[C@@H]1C=C(C(=O)N[C@@H](Cc2ccccc2)C(N)=O)[C@H](c2ccc(Br)cc2)N1S(=O)(=O)c1ccccc1Cl

>  <study system>
ASPC1

>  <endpoint>
GI50

>  <value>
12.2 to 16.8 µM

$$$$

Now for another entry.
Prompt: Hello, I am looking for reported GI50 with ASPC1 for Cc1ccccc1S(=O)(=O)N1[C@@H](c2ccc(Cl)cc2)C(C(=O)N[C@@H](Cc2ccccc2)C(=O)O)=C[C@H]1C(C)(C)C . Could you help?
Response: 12.4 µM

###

- Organism: Rattus norvegicus
- protocol details: Inhibition of rat recombinant geranylgeranyltransferase type I expressed in Escherichia coli assessed as residual enzyme activity for geranylgeranylation of RhoA at 50 uM incubated for 30 mins in presence of [3H]GGPP by scintillation counting assay relative to control
endpoint: Activity (%)
API: value field is a number in %; no unit string.

Solved entries:
>  <molecule>
Cc1ccc(S(=O)(=O)N2C[C@@H](C(=O)O)[C@H](SCCC(C)C)C[C@H]2c2cccc(Br)c2)cc1

>  <endpoint>
Activity

>  <value>
2.3

$$$$
>  <molecule>
Cc1ccccc1S(=O)(=O)N1[C@@H](c2ccc(F)cc2)C(C(=O)O)=CC[C@H]1c1ccc(Cl)cc1

>  <endpoint>
Activity

>  <value>
12.6

$$$$
>  <molecule>
C=CCS[C@H]1[C@@H](C(=O)O)[C@H](c2ccc(Cl)cc2)N(S(=O)(=O)c2ccccc2C)[C@@H]1CCCCCC

>  <endpoint>
Activity

>  <value>
6

$$$$

Prompt: Which Activity reading was recorded for the molecule Cc1ccccc1S(=O)(=O)N1[C@@H](c2ccc(Cl)cc2)C(C(=O)O)=C[C@H]1C(C)(C)C (relative stereo) ?
Response: 5.3

###

- Species on record: Rattus norvegicus
- protocol details: Inhibition of rat recombinant geranylgeranyltransferase type I expressed in Escherichia coli assessed as residual enzyme activity for geranylgeranylation of RhoA at 50 uM incubated for 30 mins in presence of [3H]GGPP by scintillation counting assay relative to control
# Activity annotations
The figure you give is taken to be in %; do not add the unit.

Consider the following illustrative entries.
>  <smi>
Cc1ccc(S(=O)(=O)N2C[C@@H](C(=O)O)[C@H](SCCc3ccccc3)C[C@H]2c2ccc3c(c2)OCO3)cc1

>  <readout unit>
%

>  <Activity>
2

$$$$
>  <smi>
CCOc1ccc([C@@H]2C[C@@H](Sc3ccc(Cl)cc3)[C@H](C(=O)O)CN2S(=O)(=O)c2ccc(C)cc2)cc1

>  <readout unit>
%

>  <Activity>
2.6

$$$$
>  <smi>
Cc1ccc([C@@H]2C[C@@H](SCc3ccc(Cl)cc3)[C@H](C(=O)O)CN2S(=O)(=O)c2ccc(Cl)cc2)cc1

>  <readout unit>
%

>  <Activity>
3.3

$$$$

Prompt: Would you kindly share the measured Activity for C=CCS[C@H]1[C@@H](C(=O)O)[C@H](c2ccc(Cl)cc2)N(S(=O)(=O)c2ccccc2C)[C@@H]1CCC ?
Response: 8.9

Prompt: Quick one: Activity for C=CCS[C@H]1[C@@H](C(=O)O)[C@H](c2ccc(C#N)cc2)N(S(=O)(=O)c2ccc(C)cc2)[C@@H]1CCCCCC ?
Response: 6

Prompt: Give its Activity value. Item: Cc1ccccc1S(=O)(=O)N1[C@@H](c2ccc(Cl)cc2)C(C(=O)O)=C[C@H]1CC1CCCC1
Response: 9.1

Prompt: Request the reported Activity associated with C=CCS[C@H]1[C@@H](C(=O)O)[C@H](c2cccc(F)c2)N(S(=O)(=O)c2ccc(C)cc2)[C@@H]1CC1CCCC1
Response: 9.7

###

A collection of compounds and their measured Activity
- Species: Rattus norvegicus
- protocol details: Inhibition of rat recombinant geranylgeranyltransferase type I expressed in Escherichia coli assessed as residual enzyme activity for geranylgeranylation of K-Ras4B at 50 uM incubated for 30 mins in presence of [3H]GGPP by scintillation counting assay relative to control
Report the value in % with no unit label.

>  <smi>
CCCCCS[C@@H]1C[C@@H](c2ccc(C)cc2)N(S(=O)(=O)c2ccccc2)C[C@H]1C(=O)O

>  <value>
81

$$$$
>  <smi>
CCOc1ccc([C@@H]2CC=C(C(=O)O)[C@H](c3cccc(Cl)c3)N2S(=O)(=O)c2ccc(C)cc2)cc1

>  <value>
78.9

$$$$
>  <smi>
CCCCCCS[C@@H]1C[C@@H](c2ccc(OC)cc2)N(S(=O)(=O)c2ccccc2)C[C@H]1C(=O)O

>  <value>
96.2

$$$$
>  <smi>
Cc1ccc(S(=O)(=O)N2[C@@H](c3cccc(C)c3)C(C(=O)O)=CC[C@H]2c2cccc(F)c2)cc1

>  <value>
60.5

$$$$
>  <smi>
Cc1ccc(S(=O)(=O)N2C[C@@H](C(=O)O)[C@H](Sc3ccccc3)C[C@H]2c2ccc3c(c2)OCO3)cc1

>  <value>
57.4

$$$$

Prompt: Request the reported Activity associated with Cc1ccc(S(=O)(=O)N2[C@@H](c3cccc(F)c3)C(C(=O)O)=CC[C@H]2c2cccc(F)c2)cc1
Response: 69.9

Prompt: Need Activity, item Cc1ccc([C@@H]2CC=C(C(=O)O)[C@H](c3cccc(F)c3)N2S(=O)(=O)c2ccccc2C)cc1
Response: 63.4

Prompt: What does the record list as Activity for CCCC[C@@H]1[C@@H](Sc2ccc(OC)cc2)[C@@H](C(=O)O)[C@H](c2cccc(F)c2)N1S(=O)(=O)c1ccc(C)cc1 ?
Response: 27.4

###

- System: CFPAC-1
- protocol details: Antiproliferative activity against human CFPAC-1 cells assessed as inhibition of cell proliferation incubated for 72 hrs by CCK8 assay
- Format: functional, cell-based
- protocol conditions: CFPAC-1, 72 h
endpoint: pIC50
Please express pIC50 as -log10 of the molar concentration.

Prompt: Can you look up pIC50 on CFPAC-1 for Cc1ccccc1S(=O)(=O)N1[C@@H](c2ccc(Cl)cc2)C(COCC(=O)N[C@@H](Cc2ccccc2)C(N)=O)=C[C@H]1C(C)(C)C ?
Response: 5.09

###

- Species: Rattus norvegicus
- protocol details: Inhibition of rat recombinant geranylgeranyltransferase type I expressed in Escherichia coli assessed as residual enzyme activity for geranylgeranylation of K-Ras4B at 50 uM incubated for 30 mins in presence of [3H]GGPP by scintillation counting assay relative to control
endpoint: Activity (%)
Express it in %; write the number only.

>  <smi>
CCS[C@@H]1C[C@@H](c2ccc(OC)cc2)N(S(=O)(=O)c2ccccc2C)C[C@H]1C(=O)O

>  <value>
71.1

$$$$
>  <smi>
COC(=O)c1ccccc1S(=O)(=O)N1[C@@H](c2cccc(Cl)c2)C(C(=O)O)=CC[C@H]1c1ccc(C)cc1

>  <value>
56.2

$$$$

Prompt: Name the reported Activity value associated with the compound Cc1ccc(S(=O)(=O)N2[C@@H](c3cccc(C)c3)C(C(=O)O)=CC[C@H]2c2ccc(F)cc2)cc1
Response: 78.1

###

- Organism: Rattus norvegicus
- protocol details: Inhibition of rat recombinant geranylgeranyltransferase type I expressed in Escherichia coli assessed as residual enzyme activity for geranylgeranylation of K-Ras4B at 50 uM incubated for 30 mins in presence of [3H]GGPP by scintillation counting assay relative to control
endpoint: Activity (%)
Just the number in %, nothing appended.

>  <smi>
CCCCCS[C@H]1[C@@H](C(=O)O)[C@H](c2cccc(F)c2)N(S(=O)(=O)c2ccc(C)cc2)[C@@H]1CCCC

>  <readout unit>
%

>  <Activity>
23.5

$$$$
>  <smi>
Cc1ccc(S(=O)(=O)N2C[C@@H](C(=O)O)[C@H](SCc3ccc(C(C)(C)C)cc3)C[C@H]2c2ccccc2)cc1

>  <readout unit>
%

>  <Activity>
55.9

$$$$
>  <smi>
Cc1ccc(S[C@@H]2C[C@@H](c3ccc(Cl)cc3)N(S(=O)(=O)c3ccccc3C)C[C@H]2C(=O)O)cc1

>  <readout unit>
%

>  <Activity>
74.8

$$$$
>  <smi>
COc1ccc([C@@H]2C[C@@H](Sc3ccccc3)[C@H](C(=O)O)CN2S(=O)(=O)c2ccccc2)cc1

>  <readout unit>
%

>  <Activity>
103

$$$$

Prompt: Query (compound): COc1ccc([C@@H]2CC=C(C(=O)O)[C@H](c3cccc(Br)c3)N2S(=O)(=O)c2ccccc2C)cc1 ; field requested: Activity
Response: 51.9

Prompt: # input compound: COc1ccc([C@@H]2C[C@@H](SCc3ccc(C(C)(C)C)cc3)[C@H](C(=O)O)CN2S(=O)(=O)c2ccc(C)cc2)cc1 ; wanted: its Activity
Response: 44.1

Prompt: Which measured Activity value corresponds to Cc1ccc(S[C@@H]2C[C@@H](c3ccc(C)cc3)N(S(=O)(=O)c3ccc(Cl)cc3)C[C@H]2C(=O)O)cc1 ?
Response: 92.4

Prompt: Query (compound): CC(=O)C1=CC[C@@H](c2ccccc2F)N(S(=O)(=O)c2ccc(C)cc2)C1 ; field requested: Activity
Response: 80.8
